- experimental target: Galectin-3 (Homo sapiens (Human), UniProt P17931)
- Sequence (P17931 whole entry): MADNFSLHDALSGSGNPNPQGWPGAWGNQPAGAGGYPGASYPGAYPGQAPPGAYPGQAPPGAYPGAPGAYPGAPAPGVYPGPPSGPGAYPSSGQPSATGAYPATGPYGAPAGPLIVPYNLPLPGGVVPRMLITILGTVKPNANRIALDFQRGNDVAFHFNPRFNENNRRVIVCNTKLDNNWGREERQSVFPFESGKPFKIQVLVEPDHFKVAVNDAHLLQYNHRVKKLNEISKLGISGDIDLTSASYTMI
- assay explanation: Fluorescence anisotropy assay, compound as inhibitor of galectin / fluorescein tagged saccharide probe interaction
measurement type: Kd (nM)

Take a look at these entries with their results.
INSERT INTO assay_data (molecule, measurement_type, quantitative_readout) VALUES
  ('OC[C@H]1O[C@H](Sc2cc(Cl)ccc2Cl)[C@H](O)[C@@H](n2cc(-c3nccs3)nn2)[C@H]1O [Example 28]', 'Kd', 8200),
  ('OC[C@H]1O[C@H](Sc2ccc(Cl)c(Cl)c2)[C@H](O)[C@@H](n2cc(-c3ccc(F)cn3)nn2)[C@H]1O [Example 6]', 'Kd', 690),
  ('OC[C@H]1O[C@H](Sc2cc(Cl)cc(Cl)c2)[C@H](O)[C@@H](n2cc(-c3nccs3)nn2)[C@H]1O [Example 24]', 'Kd', 1600),
  ('OC[C@H]1O[C@H](Sc2cnc(C(F)(F)F)c(Br)c2)[C@H](O)[C@@H](n2cc(-c3nccs3)nn2)[C@H]1O [Example 26]', 'Kd', 2000),
  ('OC[C@H]1O[C@H](Sc2ccc(Cl)c(Cl)c2)[C@H](O)[C@@H](n2cc(-c3ccsc3)nn2)[C@H]1O [Example 1]', 'Kd', 2600);

(A) OC[C@H]1O[C@H](Sc2cc(Cl)c(Cl)c(Cl)c2)[C@H](O)[C@@H](n2cc(-c3nccs3)nn2)[C@H]1O [Example 17]
(B) OC[C@H]1O[C@H](Sc2ccc(Cl)c(Cl)c2)[C@H](O)[C@@H](n2cc(-c3nc(Cl)cs3)nn2)[C@H]1O [Example 31]
(C) OC[C@H]1O[C@H](Sc2ccc(F)c(Br)c2)[C@H](O)[C@@H](n2cc(-c3nccs3)nn2)[C@H]1O [Example 27]
INPUT: Arrange the 3 molecules from largest to smallest Kd. Hello, could you send the labels back in the order asked? Thank you.
OUTPUT: C, A, B
(C: 4700 nM, A: 1300 nM, B: 460 nM)

(a) OC[C@H]1O[C@H](Sc2ccc(Cl)c(Cl)c2)[C@H](O)[C@@H](n2cc(-c3nccs3)nn2)[C@H]1O [Example 18]
(b) OC[C@H]1O[C@H](Sc2ccc(Cl)c(Cl)c2)[C@H](O)[C@@H](n2cc(-c3ncc(F)s3)nn2)[C@H]1O [Example 30]
(c) OC[C@H]1O[C@H](Sc2ccc(Cl)c(Cl)c2)[C@H](O)[C@@H](n2cc(-c3nc(C(F)(F)F)cs3)nn2)[C@H]1O [Example 32]
INPUT: # desc sort on Kd across 3 molecules List the labels according to the requested ordering.
OUTPUT: a, b, c
(a: 4100 nM, b: 1600 nM, c: 210 nM)

---

- experimental target: Galectin-1 (Homo sapiens (Human), UniProt P09382)
- Sequence (P09382 whole entry): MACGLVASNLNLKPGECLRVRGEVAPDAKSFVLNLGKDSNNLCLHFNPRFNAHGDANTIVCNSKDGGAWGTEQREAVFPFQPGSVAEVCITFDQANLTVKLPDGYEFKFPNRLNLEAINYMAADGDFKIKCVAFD
- assay explanation: Fluorescence anisotropy assay, compound as inhibitor of galectin / fluorescein tagged saccharide probe interaction
- Format: binding
pKd: −log10 of the molar value.
measurement type: pKd

As a guide, the following entries are already answered.
INSERT INTO measurements (molecule, measurement_type, quantitative_readout) VALUES
  ('OC[C@H]1O[C@H](Sc2cc(Cl)ccc2Cl)[C@H](O)[C@@H](n2cc(-c3nccs3)nn2)[C@H]1O', 'pKd', 6.04),
  ('OC[C@H]1O[C@H](Sc2cc(Cl)cc(Cl)c2)[C@H](O)[C@@H](n2cc(-c3nccs3)nn2)[C@H]1O', 'pKd', 6.47),
  ('N#Cc1c(Cl)cc(S[C@H]2OC(CO)[C@H](O)[C@H](n3cc(-c4nccs4)nn3)C2O)cc1Cl (some centres unmarked)', 'pKd', 6.10),
  ('N#Cc1ccc(S[C@H]2OC(CO)[C@H](O)[C@H](n3cc(-c4cscn4)nn3)C2O)cc1Cl (some centres unmarked)', 'pKd', 6.43),
  ('OC[C@H]1O[C@H](Sc2cc(Cl)c(Cl)c(Cl)c2)[C@H](O)[C@@H](n2cc(-c3nccs3)nn2)[C@H]1O', 'pKd', 6.21),
  ('OC[C@H]1O[C@H](Sc2ccc(Cl)c(Cl)c2)[C@H](O)[C@@H](n2cc(-c3nc(C(F)(F)F)cs3)nn2)[C@H]1O', 'pKd', 6.10),
  ('OC[C@H]1O[C@H](Sc2cnc(C(F)(F)F)c(Br)c2)[C@H](O)[C@@H](n2cc(-c3ccsc3)nn2)[C@H]1O', 'pKd', 6.42),
  ('OC[C@H]1O[C@H](Sc2cncc(Br)c2)[C@H](O)[C@@H](n2cc(-c3cscn3)nn2)[C@H]1O', 'pKd', 6.60);

(1) OC[C@H]1O[C@H](Sc2cnc(C(F)(F)F)c(Br)c2)[C@H](O)[C@@H](n2cc(-c3nccs3)nn2)[C@H]1O
(2) OC[C@H]1O[C@H](Sc2ccc(Cl)c(Cl)c2)[C@H](O)[C@@H](n2cc(-c3nc(Cl)cs3)nn2)[C@H]1O
INPUT: Select the item whose pKd value is smaller, choosing between 1 and 2 . Reply briefly: the label of your chosen item.
OUTPUT: 1

---

- experimental target: UniProtKB P17931
- assay explanation: Fluorescence anisotropy assay, compound as inhibitor of galectin / fluorescein tagged saccharide probe interaction
The reader will find reported Kd values listed item by item below.
Quick note: give the figure in µM, leave out the unit.

A selection of reference data follows.
INSERT INTO results (compound, quantitative_readout) VALUES
  ('OC[C@H]1O[C@H](Sc2cncc(Br)c2)[C@H](O)[C@@H](n2cc(-c3ccsc3)nn2)[C@H]1O [Example 3]', 1.7),
  ('OC[C@H]1O[C@H](Sc2cc(Cl)c(F)c(Cl)c2)[C@H](O)[C@@H](n2cc(-c3cscn3)nn2)[C@H]1O [Example 14]', 6.2);

// below: Kd requested for another compound
INPUT: Lab note: need Kd with UniProtKB P17931 for entry OC[C@H]1O[C@H](Sc2cc(Cl)c(F)c(Cl)c2)[C@H](O)[C@@H](n2cc(-c3cccs3)nn2)[C@H]1O [Example 8] , please look it up.
OUTPUT: 2.3
